Measured WBC of individual entries
species: Rattus norvegicus; assay: Open TG-GATES - Regimen: Daily Repeat; type: toxicity, organism-based, Sprague-Dawley; set-up: regimen Daily Repeat, gender Male, age 6 weeks; details: in vivo, po, 100 mg/kg, […], tissue Blood, route gavage, dose level Low, time 7 day
Just the number please, in x10_2/uL, no unit attached.

A selection of reference data follows.
{"compound_string": "CNC(=C[N+](=O)[O-])NCCSCc1ccc(CN(C)C)o1", "unit_descriptor": "x10_2/uL", "test_result": 99.9}
{"compound_string": "Cc1nnc2n1-c1ccc(Cl)cc1C(c1ccccc1Cl)=NC2", "unit_descriptor": "x10_2/uL", "test_result": 109.2}
{"compound_string": "O=C(OC[C@H]1O[C@@H](OC(=O)c2cc(O)c(O)c(OC(=O)c3cc(O)c(O)c(O)c3)c2)[C@H](OC(=O)c2cc(O)c(O)c(OC(=O)c3cc(O)c(O)c(O)c3)c2)[C@@H](OC(=O)c2cc(O)c(O)c(OC(=O)c3cc(O)c(O)c(O)c3)c2)[C@@H]1OC(=O)c1cc(O)c(O)c(OC(=O)c2cc(O)c(O)c(O)c2)c1)c1cc(O)c(O)c(OC(=O)c2cc(O)c(O)c(O)c2)c1", "unit_descriptor": "x10_2/uL", "test_result": 119}
{"compound_string": "CN/C(=N/CCSCc1nc[nH]c1C)NC#N", "unit_descriptor": "x10_2/uL", "test_result": 111.1}
{"compound_string": "CCOc1ccc(NC(C)=O)cc1", "unit_descriptor": "x10_2/uL", "test_result": 96.3}

Fill in the blank: the reported WBC of COC(=O)C1=C(C)NC(C)=C(C(=O)OC)C1c1ccccc1[N+](=O)[O-] is ____.
105.6
